Listing of entries alongside the reported inhibition at 5 µM.
Molecular target: hDGAT1 (Homo sapiens, UniProt O75907)
Construct: host or cells: Sf9 insect cells (baculovirus); microsomal preparation
Sequence (O75907 whole entry): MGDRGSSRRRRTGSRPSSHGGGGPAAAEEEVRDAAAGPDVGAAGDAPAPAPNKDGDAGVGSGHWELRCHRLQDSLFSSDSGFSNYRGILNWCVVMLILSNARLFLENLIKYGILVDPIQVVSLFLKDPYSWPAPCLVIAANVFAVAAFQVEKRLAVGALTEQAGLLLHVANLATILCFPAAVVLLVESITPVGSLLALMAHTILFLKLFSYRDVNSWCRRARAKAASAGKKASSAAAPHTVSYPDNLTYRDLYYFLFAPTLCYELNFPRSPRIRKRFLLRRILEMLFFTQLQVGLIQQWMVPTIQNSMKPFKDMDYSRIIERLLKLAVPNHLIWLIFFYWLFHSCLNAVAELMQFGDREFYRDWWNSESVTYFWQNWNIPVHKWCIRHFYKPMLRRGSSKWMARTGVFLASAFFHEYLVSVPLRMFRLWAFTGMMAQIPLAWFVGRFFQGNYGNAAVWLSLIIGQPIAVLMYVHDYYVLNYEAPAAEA
Assay: In-vitro DGAT1 assay (hDGAT1 microsomes from Sf9 cells, 14C oleoyl CoA, triglyceride formation)
Type: biochemical
Conditions: At 5 μM

Molecule	inhibition at 5 µM
COC(=O)C(NC(=O)c1cc(-c2ccc(NC(=O)Nc3cccc(C(F)(F)F)c3)cc2)no1)C(C)C (stereo not shown)	0 to 50%
COC(=O)[C@@H](NC(=O)c1nc(-c2ccc(NC(=S)Nc3cccc(F)c3)cc2)no1)C(C)C	0 to 50%
COC(=O)[C@@H](NC(=O)c1nc(-c2ccc(NC(=S)Nc3ccc(F)cc3)cc2)no1)C(C)C	0 to 50%
O=C(Nc1ccc(-c2cc(C(=O)NC(Cc3ccccc3)C(=O)O)on2)cc1)Nc1ccccc1F (stereo not shown)	50 to 75%
CC(C)[C@H](NC(=O)c1cc(-c2ccc(NC(=O)Nc3ccc(F)cc3F)cc2F)no1)C(=O)O	75 to 100%
COC(=O)C(NC(=O)c1cc(-c2ccc(NC(=O)Nc3ccccc3F)cc2C)no1)C(C)C (stereo not shown)	0 to 50%
COC(=O)[C@@H](NC(=O)c1cc(-c2ccc(NC(=O)Nc3ccc(F)cc3)cc2F)no1)C(C)C	50 to 75%

====

Target: hDGAT1 (Homo sapiens, UniProt O75907)
Construct: host or cells: Sf9 insect cells (baculovirus); microsomal preparation
Assay: In-vitro DGAT1 assay (hDGAT1 microsomes from Sf9 cells, 14C oleoyl CoA, triglyceride formation)
Assay type: biochemical
Settings: At 1 μM
# inhibition at 1 µM listing for each entry below

Compound	inhibition at 1 µM
CC(C)C(NC(=O)c1cc(-c2ccc(NC(=O)[C@H](O)c3ccccc3)cc2)no1)C(=O)O (stereo partly drawn) [Example 341]	0 to 50%
CC(C)C(NC(=O)c1cc(-c2ccc(NC(=O)Nc3cc(F)cc(F)c3)cc2)no1)C(=O)O (stereo not drawn) [Example 160]	75 to 100%
COC(=O)[C@H](NC(=O)c1cc(-c2ccc(NC(=O)Nc3ccccc3Cl)cc2)no1)C(C)C [Example 220]	0 to 50%
CC(C)[C@H](NC(=O)c1cc(-c2ccc(NC(=O)Nc3ccc(F)c(F)c3)cc2)no1)C(=O)O [Example 130]	75 to 100%
CCCCc1ccc(NC(=O)Nc2ccc(-c3cc(C(=O)NC(C(=O)O)C(C)C)on3)cc2)cc1 (stereo not drawn) [Example 158]	75 to 100%
COc1ccccc1NC(=O)Nc1ccc(-c2cc(C(=O)N[C@H](C(=O)O)C(C)C)on2)cc1 [Example 185]	75 to 100%
COC(=O)[C@H](NC(=O)c1cc(-c2ccc(NS(=O)(=O)c3ccc(C(F)(F)F)cc3)cc2)no1)C(C)C [Example 318]	0 to 50%
COC(=O)c1ccc(NC(=O)Nc2ccc(-c3cc(C(=O)NC(C(=O)OC)C(C)C)on3)cc2)cc1 (stereo not drawn) [Example 283]	0 to 50%
CC(C)[C@@H](C(=O)O)N(C)C(=O)c1cc(-c2ccc(NC(=O)Nc3ccccc3Cl)cc2)no1 [Example 314]	50 to 75%
COC(=O)C(NC(=O)c1cc(-c2ccc(OCc3ccccc3C(F)(F)F)cc2)no1)C(C)C (stereo not drawn) [Example 329]	0 to 50%
CC(C)[C@H](NC(=O)c1cc(-c2ccc(NC(=O)Nc3ccccc3C(F)(F)F)cc2)no1)C(=O)O [Example 164]	75 to 100%
CC(C)[C@H](NC(=O)c1cc(-c2ccc(NC(=O)Nc3cc(Cl)ccc3Oc3ccccc3)cc2)no1)C(=O)O [Example 236]	75 to 100%
CC(C)[C@@H](N/C(=N/O)c1cc(-c2ccc(NC(=O)Nc3ccccc3F)cc2)no1)C(=O)O [Example 226]	0 to 50%
CC(C)[C@H](NC(=O)c1cc(-c2ccc(NC(=O)Nc3ccc(Cl)cc3)cc2)no1)C(=O)O [Example 179]	75 to 100%
CC(C)[C@H](NC(=O)c1cc(-c2ccc(NC(=O)Nc3ccc(OC(F)(F)F)cc3)cc2)no1)C(=O)O [Example 187]	75 to 100%

Source of measurements: patent US8835428B2
